# TESTED_ON: T1, recombinant human TfR1 (transferrin receptor protein 1) (human, UniProt P02786 89-760)
# T1 construct: Recombinant protein in SPR and ELISA; they were assigned to this molecule; also called hTfR1; huTfR1
# TEST_PROTOCOL: kinetic analysis (Biacore), Table 7; TfR1 species not stated
READOUT_NAME: Kd (nM)
Response body: numeric value in nM, unit text excluded.

{"BINDER": "humanized anti-TfR Fab 3M12 VH4/Vκ3 (Fab, V domains shown, also called 3M12 (VH4/Vk3); anti-TfR Fab 3M12 VH4/Vk3) VH: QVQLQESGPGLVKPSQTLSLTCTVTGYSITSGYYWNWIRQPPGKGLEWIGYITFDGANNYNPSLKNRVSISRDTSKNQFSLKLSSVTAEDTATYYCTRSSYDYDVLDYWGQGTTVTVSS VL: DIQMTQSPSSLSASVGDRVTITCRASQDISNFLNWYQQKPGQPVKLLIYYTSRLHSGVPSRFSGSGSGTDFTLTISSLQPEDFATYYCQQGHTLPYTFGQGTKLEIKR", "READOUT_NAME": "Kd", "VAL": 0.341}
{"BINDER": "humanized anti-TfR Fab 5H12 VH5 (C33Y)/Vκ3 (Fab, V domains shown, also called 5H12 (VH5-C33Y/Vk3)) VH: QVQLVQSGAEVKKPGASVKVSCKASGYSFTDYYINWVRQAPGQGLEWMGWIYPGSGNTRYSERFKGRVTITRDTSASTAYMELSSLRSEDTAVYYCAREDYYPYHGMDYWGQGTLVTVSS VL: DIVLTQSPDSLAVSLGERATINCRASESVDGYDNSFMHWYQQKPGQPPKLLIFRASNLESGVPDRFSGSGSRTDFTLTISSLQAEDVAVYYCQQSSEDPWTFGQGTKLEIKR", "READOUT_NAME": "Kd", "VAL": 0.627}

Here is the next item to consider.
The recorded Kd for entry humanized anti-TfR Fab 3A4 VH3/Vκ4 (Fab, V domains shown, also called 3A4 (VH3/Vk4)) VH: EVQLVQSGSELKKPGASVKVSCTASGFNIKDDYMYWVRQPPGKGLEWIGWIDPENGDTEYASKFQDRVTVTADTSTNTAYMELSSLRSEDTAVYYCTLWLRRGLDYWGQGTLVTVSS VL: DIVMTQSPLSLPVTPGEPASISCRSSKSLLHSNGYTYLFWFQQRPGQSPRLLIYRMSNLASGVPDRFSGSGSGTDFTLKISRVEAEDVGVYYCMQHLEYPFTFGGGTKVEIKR equals 1.5
